Assign z-score to each entry below.
# Test summary: PSAC antagonists in infected red cells, primary screen, cell-based, P. falciparum Indochina, OD700, 1 h (AID 1154)
# Condition label: P. falciparum Indochina infected RBC osmotic lysis, higher = more signal, called active from +8 up or from −8 down
Answer with a bare number; do not write a unit.

If you can, please state the reported z-score value of N#Cc1ccc(C(O)C2C=CC3C(=O)N(c4ccccc4)C(=O)C3N2Nc2ccc([N+](=O)[O-])cc2)cc1 (centres undefined) . 25.8

Which value of z-score has been reported for COCCOC(=O)N1C(=O)[C@@]2(c3cc(C#CCC(C(=O)OC)C(=O)OC)ccc31)[C@H](C(=O)N1CCc3cc(OC)c(OC)cc3C1)[C@H]1C(=O)O[C@H](c3ccccc3)[C@H](c3ccccc3)N1[C@@H]2c1ccc(O)cc1 in the records? 0.577

Return reported z-score; argument: COC(=O)[C@@]1(Cc2ccccc2)[C@H]2c3cc(C(=O)N4CCCC4)n(Cc4ccc(C(F)(F)F)nc4)c3C[C@H]2CN1C(=O)c1ccccc1 2.24

// returns reported z-score for input CCOC(=O)C1=CC[C@@H](c2ccccc2)N(S(=O)(=O)c2ccc(C)cc2)[C@H]1C#N 2.97

Item under review: CC1CC/C=C\[C@H]2OC34C=CCN(CCN5CCOCC5)C(=O)[C@H]3N(CCCCCCO)C(=O)[C@@H]4C2C(=O)O1 (some centres undefined) . Reported z-score? 0.592

z-score for C/C=C/CN(C(=O)C#Cc1ccccc1)[C@H](CO[Si](C)(C)C(C)(C)C)c1ccccc1 ? 0.567

I have this compound here, COCCn1c(C(=O)N2CCCC2)cc2c1C[C@H]1CN(C(=O)c3ccccc3)[C@@](Cc3ccccc3)(C(=O)OC)[C@@H]21 , and I need its recorded z-score. 1.46

# get_value(readout='z-score', item= COc1ccc([Si](C)(C)[C@H]2[C@H](CC(=O)N3Cc4ccccc4C[C@H]3CO)O[C@@]3(C(=O)N(Cc4cccc(N5C(=O)c6cccc7cccc5c67)c4)c4ccccc43)[C@@H]2C)cc1 ) 5.25

Any idea what its z-score is? The compound is COCCOC(=O)N1C(=O)[C@@]2(c3cc(C#CC4(O)CCCCCC4)ccc31)[C@H](C(=O)N1CCc3cc(OC)c(OC)cc3C1)[C@H]1C(=O)O[C@H](c3ccccc3)[C@H](c3ccccc3)N1[C@@H]2c1ccc(O)cc1 1.31

----------
Would you kindly list z-score for each of these molecules?
# Test summary: E. coli DRC41 culture turbidity changes, primary screen, E. coli filamentation inducer project, strain DRC41, OD650, 48 h (AID 1152);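 also: E. coli MC1000 strain DRC41 lacking acrAB efflux pump and sulA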
# Condition label: E. coli DRC41 (acrAB sulA), higher = more signal, called active from +8 up or from −8 down
I'd appreciate a reply containing only the number, no unit.

Entry CC(C)CNC(=O)[C@@H]1c2ccccc2C(=O)N(Cc2ccccc2)[C@H]1c1ccc(CO)cc1 has what z-score? -0.603

GET /values?readout=z-score&item= COCCOC(=O)N1C(=O)[C@@]2(c3cc(C#CCC(C(=O)OC)C(=O)OC)ccc31)[C@H](C(=O)N1CCCCCCC1)[C@H]1C(=O)O[C@H](c3ccccc3)[C@H](c3ccccc3)N1[C@@H]2c1ccccc1OCCO 0.822

# lookup: z-score of O=C1C2C=CC(C(O)c3cccs3)N(Nc3ccccc3)C2C(=O)N1c1ccccc1 (stereo not drawn) -0.597
